Recorded % inhibition of binding values for a group of binders are listed next.
biological target: tetanus neurotoxin (TeNT), authentic tetanus holotoxin (Clostridium tetani, UniProt P04958 2-1315); test: competition ELISA on TeNT, binder biotinylated; competitor SVT15L; also: test concentration or dose not given here
Sequence (P04958 2-457 limits assumed, chain 1 of 2): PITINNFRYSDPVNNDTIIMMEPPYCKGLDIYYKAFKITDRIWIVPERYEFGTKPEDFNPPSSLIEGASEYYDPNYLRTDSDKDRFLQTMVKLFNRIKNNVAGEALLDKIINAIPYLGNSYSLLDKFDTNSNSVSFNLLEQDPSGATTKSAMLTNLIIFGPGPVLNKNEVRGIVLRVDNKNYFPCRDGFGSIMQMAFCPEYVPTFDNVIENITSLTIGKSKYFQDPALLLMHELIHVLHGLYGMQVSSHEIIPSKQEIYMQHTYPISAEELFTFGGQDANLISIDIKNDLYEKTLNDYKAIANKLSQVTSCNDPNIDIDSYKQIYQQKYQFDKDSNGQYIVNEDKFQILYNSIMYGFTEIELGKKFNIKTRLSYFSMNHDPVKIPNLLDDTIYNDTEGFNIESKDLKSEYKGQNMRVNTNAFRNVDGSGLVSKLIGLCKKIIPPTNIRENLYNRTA
Sequence (P04958 458-1315 limits assumed, chain 2 of 2): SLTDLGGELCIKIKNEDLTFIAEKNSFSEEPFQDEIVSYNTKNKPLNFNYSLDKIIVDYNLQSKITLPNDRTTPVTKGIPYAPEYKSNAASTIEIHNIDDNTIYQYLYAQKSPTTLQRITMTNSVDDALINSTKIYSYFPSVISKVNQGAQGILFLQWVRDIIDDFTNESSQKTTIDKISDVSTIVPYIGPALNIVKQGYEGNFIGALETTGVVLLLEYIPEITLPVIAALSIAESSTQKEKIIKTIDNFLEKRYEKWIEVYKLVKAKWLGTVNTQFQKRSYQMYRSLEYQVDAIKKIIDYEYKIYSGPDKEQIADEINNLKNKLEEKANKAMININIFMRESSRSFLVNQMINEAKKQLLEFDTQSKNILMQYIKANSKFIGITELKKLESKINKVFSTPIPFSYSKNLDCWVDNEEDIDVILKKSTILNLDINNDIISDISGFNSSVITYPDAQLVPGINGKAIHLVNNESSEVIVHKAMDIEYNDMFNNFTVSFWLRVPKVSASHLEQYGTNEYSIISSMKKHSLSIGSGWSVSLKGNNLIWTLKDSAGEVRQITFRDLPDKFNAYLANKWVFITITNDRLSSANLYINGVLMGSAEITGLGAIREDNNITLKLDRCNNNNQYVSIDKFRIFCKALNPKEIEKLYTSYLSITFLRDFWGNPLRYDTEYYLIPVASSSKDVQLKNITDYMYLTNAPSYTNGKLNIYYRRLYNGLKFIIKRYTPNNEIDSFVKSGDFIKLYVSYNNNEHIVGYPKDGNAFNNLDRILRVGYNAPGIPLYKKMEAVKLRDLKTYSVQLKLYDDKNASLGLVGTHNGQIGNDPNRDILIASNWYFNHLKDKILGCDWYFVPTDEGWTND
Only the number, expressed in %, is required.

Here's what some known entries look like.
BINDER	UNIT LABEL	% inhibition of binding
SVT15L (VHH) VHH: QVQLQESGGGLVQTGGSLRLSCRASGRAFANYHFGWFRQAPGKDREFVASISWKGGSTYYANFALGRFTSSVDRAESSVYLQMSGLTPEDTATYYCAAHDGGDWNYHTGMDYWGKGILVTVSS	%	96
SVT16L (VHH) VHH: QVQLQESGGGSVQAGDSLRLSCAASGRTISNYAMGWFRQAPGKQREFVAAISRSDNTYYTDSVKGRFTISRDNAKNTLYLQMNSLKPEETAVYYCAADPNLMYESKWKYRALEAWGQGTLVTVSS	%	12
SVT03L (VHH) VHH: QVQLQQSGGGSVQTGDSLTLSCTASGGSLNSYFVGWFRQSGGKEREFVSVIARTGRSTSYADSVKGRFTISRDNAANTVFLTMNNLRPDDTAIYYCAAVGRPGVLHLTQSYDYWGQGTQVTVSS	%	12
SVT15L-3FW4M (VHH) VHH: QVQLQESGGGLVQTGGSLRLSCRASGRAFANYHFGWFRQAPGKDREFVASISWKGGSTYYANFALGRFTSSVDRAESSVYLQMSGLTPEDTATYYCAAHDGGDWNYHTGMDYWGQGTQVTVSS	%	96

Req: Find the recorded % inhibition of binding belonging to SVT13L (VHH) VHH: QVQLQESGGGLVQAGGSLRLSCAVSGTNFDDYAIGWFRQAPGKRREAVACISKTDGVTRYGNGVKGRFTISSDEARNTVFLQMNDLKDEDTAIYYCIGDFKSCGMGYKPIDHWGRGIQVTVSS and report it.
Resp: -19

Req: Find the recorded % inhibition of binding belonging to SVT22L (VHH) VHH: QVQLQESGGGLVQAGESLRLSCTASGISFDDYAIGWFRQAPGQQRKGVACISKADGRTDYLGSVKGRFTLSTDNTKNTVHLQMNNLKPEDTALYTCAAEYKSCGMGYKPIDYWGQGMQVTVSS and report it.
Resp: 2

Req: Find the recorded % inhibition of binding belonging to SVT02L (VHH) VHH: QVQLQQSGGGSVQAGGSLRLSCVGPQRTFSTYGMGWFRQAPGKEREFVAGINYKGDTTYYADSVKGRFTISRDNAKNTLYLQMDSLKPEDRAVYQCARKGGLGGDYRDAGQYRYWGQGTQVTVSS and report it.
Resp: 6

Req: Find the recorded % inhibition of binding belonging to SVT08L (VHH) VHH: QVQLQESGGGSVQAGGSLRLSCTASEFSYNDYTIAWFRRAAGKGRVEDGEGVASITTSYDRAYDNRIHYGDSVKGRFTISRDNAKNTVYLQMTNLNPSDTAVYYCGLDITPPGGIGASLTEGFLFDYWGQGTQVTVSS and report it.
Resp: 6

Req: Find the recorded % inhibition of binding belonging to SVT34L (VHH) VHH: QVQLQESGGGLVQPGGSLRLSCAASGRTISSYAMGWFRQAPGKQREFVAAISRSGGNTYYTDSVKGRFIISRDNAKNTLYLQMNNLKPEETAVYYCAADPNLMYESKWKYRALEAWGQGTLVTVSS and report it.
Resp: 3

Req: Find the recorded % inhibition of binding belonging to SVT06L (VHH) VHH: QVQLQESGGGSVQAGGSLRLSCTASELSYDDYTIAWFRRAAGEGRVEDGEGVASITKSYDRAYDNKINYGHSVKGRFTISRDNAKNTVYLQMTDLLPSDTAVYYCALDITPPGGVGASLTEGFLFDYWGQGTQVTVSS and report it.
Resp: 14
